- Protocol notes: Competitive Inhibition constant for Bacillus stearothermophilus glucosidase
- Parameters: species or system Geobacillus stearothermophilus
Recorded endpoint: Ki (µM)
// return numeric value only (unit: µM, not printed)

Record summary for O=C(CCCCO)NCC1OC(CO)C(O)C(O)C1O (stereo unspecified) : reported Ki = 580

###

- Protocol notes: Inhibition of Flint corn glucosidase (of family 31 alpha-glucosidase) by compound with concentration 1 umol/mI
Recorded endpoint: inhibition (%)

[[record]]
compound = "O=C(CCO)NCC1OC(CO)C(O)C(O)C1O (stereo not drawn)"
meas_value = 14.1

[[record]]
compound = "O=C(CCCO)NCC1OC(CO)C(O)C(O)C1O (stereo not drawn)"
meas_value = 18.5

[[record]]
compound = "O=C(CCCCCO)NCC1OC(CO)C(O)C(O)C1O (stereo not drawn)"
meas_value = 44.6

[[record]]
compound = "O=C(NCC1OC(CO)C(O)C(O)C1O)c1ccccc1 (stereo not drawn)"
meas_value = 49.2

[[record]]
compound = "O=C(CCCCO)NCC1OC(CO)C(O)C(O)C1O (stereo not drawn)"
meas_value = 37


I: O=C(CO)NCC1OC(CO)C(O)C(O)C1O (stereo not drawn)
II: CC(C)(C)C(=O)NCC1OC(CO)C(O)C(O)C1O (stereo not drawn)
Request: Select the item whose inhibition value is smaller, choosing between I and II . Answer with the label corresponding to your selection.
Result: II
